system: 883617-216-R-J1-PDC tumor spheroids, viability; experiment: Anticancer human tumor 883617-216-R-J1-PDC patient-derived bladder carcinoma cell line growth inhibition [PI3K]; conditions: second compound 1 µM; first compound 0.1 µM; hits give low values; spheroids with HUVEC and MSC
Entries and their viability, T/C values follow.
readout_kind: viability, T/C

1. CC(Cn1ccc(-c2ccc(C#N)c(Cl)c2)n1)NC(=O)c1cc(C(C)O)[nH]n1 (stereo not given) + Cc1nc(NC(=O)N2CCCC2C(N)=O)sc1-c1ccnc(C(C)(C)C(F)(F)F)c1 ... 31%
2. CNC(=O)c1ccc(N2C(=S)N(c3ccc(C#N)c(C(F)(F)F)c3)C(=O)C2(C)C)cc1F + COc1c(OCCCN2CCOCC2)ccc2c3n(c(=NC(=O)c4cnc(N)nc4)nc12)CCN3 ... 3.07%
3. CC1(C)CCC(Nc2ncc(C(F)(F)F)c(-c3c[nH]c4c(P(C)(C)=O)c(C#N)ccc34)n2)CN1 (stereo not given) + Cc1nc(NC(=O)N2CCCC2C(N)=O)sc1-c1ccnc(C(C)(C)C(F)(F)F)c1 ... 18.6%
4. CC1(C)CCC(CN2CCN(c3ccc(C(=O)NS(=O)(=O)c4ccc(NCC5CCOCC5)c([N+](=O)[O-])c4)c(Oc4cnc5[nH]ccc5c4)c3)CC2)=C(c2ccc(Cl)cc2)C1 + COc1c(OCCCN2CCOCC2)ccc2c3n(c(=NC(=O)c4cnc(N)nc4)nc12)CCN3 ... 2.86%
5. C[C@@H](NC(=O)c1ncnc(N)c1Cl)c1ncc(C(=O)Nc2cc(C(F)(F)F)c(Cl)cn2)s1 + COc1c(OCCCN2CCOCC2)ccc2c3n(c(=NC(=O)c4cnc(N)nc4)nc12)CCN3 ... 5.13%

----------
system: 883617-216-R-J1-PDC tumor spheroids, viability; experiment: Anticancer human tumor 883617-216-R-J1-PDC cell line growth inhibition [PI3K]; details: second compound 0.00316 µM; first compound 0.316 µM; hits give low values; spheroids with HUVEC and MSC;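 note: spheroids exposed to agents for 7 days before the viability read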
Assign labels as follows, please: criterion met for viability, T/C below 50%; criterion not met for viability, T/C equal to or exceeding 50%.

1. CC1(C)CCC(Nc2ncc(C(F)(F)F)c(-c3c[nH]c4c(P(C)(C)=O)c(C#N)ccc34)n2)CN1 (stereo unspecified) + CC(Nc1ccc2c(c1)OCCn1cc(N3C(=O)OCC3C(F)F)nc1-2)C(N)=O ... criterion met
2. C=CC(=O)N1CCN(c2nc(=O)n(-c3c(C)ccnc3C(C)C)c3nc(-c4c(O)cccc4F)c(F)cc23)C(C)C1 (stereo unspecified) + COc1c(OCCCN2CCOCC2)ccc2c3n(c(=NC(=O)c4cnc(N)nc4)nc12)CCN3 ... criterion met
3. CC1(C)CCC(CN2CCN(c3ccc(C(=O)NS(=O)(=O)c4ccc(NCC5CCOCC5)c([N+](=O)[O-])c4)c(Oc4cnc5[nH]ccc5c4)c3)CC2)=C(c2ccc(Cl)cc2)C1 + CC(Nc1ccc2c(c1)OCCn1cc(N3C(=O)OCC3C(F)F)nc1-2)C(N)=O ... criterion not met
4. CC(C)NCC(C(=O)N1CCN(c2ncnc3c2C(C)CC3O)CC1)c1ccc(Cl)cc1 (stereo unspecified) + COc1c(OCCCN2CCOCC2)ccc2c3n(c(=NC(=O)c4cnc(N)nc4)nc12)CCN3 ... criterion not met
5. CC(Cn1ccc(-c2ccc(C#N)c(Cl)c2)n1)NC(=O)c1cc(C(C)O)[nH]n1 (stereo unspecified) + CC(Nc1ccc2c(c1)OCCn1cc(N3C(=O)OCC3C(F)F)nc1-2)C(N)=O ... criterion not met
6. CCN1CCN(Cc2ccc(Nc3ncc(F)c(-c4cc(F)c5nc(C)n(C(C)C)c5c4)n3)nc2)CC1 + CC(Nc1ccc2c(c1)OCCn1cc(N3C(=O)OCC3C(F)F)nc1-2)C(N)=O ... criterion met
7. CNC(=O)c1ccc(N2C(=S)N(c3ccc(C#N)c(C(F)(F)F)c3)C(=O)C2(C)C)cc1F + CC(Nc1ccc2c(c1)OCCn1cc(N3C(=O)OCC3C(F)F)nc1-2)C(N)=O ... criterion not met
8. CNC(=O)c1ccc(N2C(=S)N(c3ccc(C#N)c(C(F)(F)F)c3)C(=O)C2(C)C)cc1F + COc1c(OCCCN2CCOCC2)ccc2c3n(c(=NC(=O)c4cnc(N)nc4)nc12)CCN3 ... criterion not met
9. C#Cc1c(F)ccc2cc(O)cc(-c3ncc4c(N5CC6CCC(C5)N6)nc(OCC56CCCN5CC(F)C6)nc4c3F)c12 (stereo unspecified) + COc1c(OCCCN2CCOCC2)ccc2c3n(c(=NC(=O)c4cnc(N)nc4)nc12)CCN3 ... criterion not met
10. CC(Cn1ccc(-c2ccc(C#N)c(Cl)c2)n1)NC(=O)c1cc(C(C)O)[nH]n1 (stereo unspecified) + COc1c(OCCCN2CCOCC2)ccc2c3n(c(=NC(=O)c4cnc(N)nc4)nc12)CCN3 ... criterion not met

----------
In this section, each of the compounds is paired with its reported viability, T/C.
test system: 883617-216-R-J1-PDC tumor spheroids, viability; test: Anticancer human tumor 883617-216-R-J1-PDC cell line growth inhibition [PI3K]; conditions: second compound 0.1 µM; first compound 1 µM; hits give low values; spheroids with HUVEC and MSC;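 note: spheroids exposed to agents for 7 days before the viability read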
readout_kind: viability, T/C (%)

1. Cn1ncc(Cl)c1-c1cc(C(=O)NC(CN)Cc2cccc(F)c2)sc1Cl (stereo unspecified) + CC(Nc1ncnc2nc[nH]c12)c1cc2cccc(Cl)c2c(=O)n1-c1ccccc1 ... 30.2
2. CCCS(=O)(=O)Nc1ccc(F)c(C(=O)c2c[nH]c3ncc(-c4ccc(Cl)cc4)cc23)c1F + COc1c(OCCCN2CCOCC2)ccc2c3n(c(=NC(=O)c4cnc(N)nc4)nc12)CCN3 ... 17.8
3. CCCS(=O)(=O)Nc1ccc(F)c(C(=O)c2c[nH]c3ncc(-c4ccc(Cl)cc4)cc23)c1F + CC(Nc1ncnc2nc[nH]c12)c1cc2cccc(Cl)c2c(=O)n1-c1ccccc1 ... 85.1
4. Cn1nccc1Nc1nccc(-c2ccn(C(CO)c3ccc(Cl)c(F)c3)c(=O)c2)n1 (stereo unspecified) + CC(Nc1ncnc2nc[nH]c12)c1cc2cccc(Cl)c2c(=O)n1-c1ccccc1 ... 62.6
5. C=CC(=O)N1CCN(c2nc(=O)n(-c3c(C)ccnc3C(C)C)c3nc(-c4c(O)cccc4F)c(F)cc23)C(C)C1 (stereo unspecified) + CC(Nc1ccc2c(c1)OCCn1cc(N3C(=O)OCC3C(F)F)nc1-2)C(N)=O ... 25.7
6. C[C@@H](NC(=O)c1ncnc(N)c1Cl)c1ncc(C(=O)Nc2cc(C(F)(F)F)c(Cl)cn2)s1 + COc1c(OCCCN2CCOCC2)ccc2c3n(c(=NC(=O)c4cnc(N)nc4)nc12)CCN3 ... 22
7. CCN1CCN(Cc2ccc(Nc3ncc(F)c(-c4cc(F)c5nc(C)n(C(C)C)c5c4)n3)nc2)CC1 + CC(Nc1ncnc2nc[nH]c12)c1cc2cccc(Cl)c2c(=O)n1-c1ccccc1 ... 50.7
8. C#Cc1c(F)ccc2cc(O)cc(-c3ncc4c(N5CC6CCC(C5)N6)nc(OCC56CCCN5CC(F)C6)nc4c3F)c12 (stereo unspecified) + Cc1nc(NC(=O)N2CCCC2C(N)=O)sc1-c1ccnc(C(C)(C)C(F)(F)F)c1 ... 74.2
9. CC1(C)CCC(CN2CCN(c3ccc(C(=O)NS(=O)(=O)c4ccc(NCC5CCOCC5)c([N+](=O)[O-])c4)c(Oc4cnc5[nH]ccc5c4)c3)CC2)=C(c2ccc(Cl)cc2)C1 + CC(Nc1ccc2c(c1)OCCn1cc(N3C(=O)OCC3C(F)F)nc1-2)C(N)=O ... 45.8
10. Cn1ncc(Cl)c1-c1cc(C(=O)NC(CN)Cc2cccc(F)c2)sc1Cl (stereo unspecified) + CC(Nc1ccc2c(c1)OCCn1cc(N3C(=O)OCC3C(F)F)nc1-2)C(N)=O ... 15.2
11. CNC(=O)c1ccc(N2C(=S)N(c3ccc(C#N)c(C(F)(F)F)c3)C(=O)C2(C)C)cc1F + CC(Nc1ccc2c(c1)OCCn1cc(N3C(=O)OCC3C(F)F)nc1-2)C(N)=O ... 41.9

----------
System: 883617-216-R-J1-PDC tumor spheroids, viability
Assay: Anticancer human tumor 883617-216-R-J1-PDC cell line growth inhibition [PI3K];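 note: spheroids exposed to agents for 7 days before the viability read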
Conditions: second compound 0.0316 µM; first compound 0.316 µM; hits give low values; spheroids with HUVEC and MSC
Description: Combinatorial screen of targeted agents with the PI3K inhibitors inavolisib, alpelisib, duvelisib, and copanlisib in multi-cell type tumor spheroids A high-throughput screen of multi-cell type tumor spheroids was designed to identify active combinations of targeted small molecules and PI3K pathway inhibitors. […] Compounds. […] If the clinical Cmax for an agent had not been determined, the highest concentration tested was 10 microM. […]
readout_kind: viability, T/C

1. CC1(C)CCC(CN2CCN(c3ccc(C(=O)NS(=O)(=O)c4ccc(NCC5CCOCC5)c([N+](=O)[O-])c4)c(Oc4cnc5[nH]ccc5c4)c3)CC2)=C(c2ccc(Cl)cc2)C1 + COc1c(OCCCN2CCOCC2)ccc2c3n(c(=NC(=O)c4cnc(N)nc4)nc12)CCN3 ... 40.5%
2. CC(C)NCC(C(=O)N1CCN(c2ncnc3c2C(C)CC3O)CC1)c1ccc(Cl)cc1 (stereo not drawn) + CC(Nc1ccc2c(c1)OCCn1cc(N3C(=O)OCC3C(F)F)nc1-2)C(N)=O ... 48.1%
3. CCN1CCN(Cc2ccc(Nc3ncc(F)c(-c4cc(F)c5nc(C)n(C(C)C)c5c4)n3)nc2)CC1 + COc1c(OCCCN2CCOCC2)ccc2c3n(c(=NC(=O)c4cnc(N)nc4)nc12)CCN3 ... 24%
